B1: TPR t1 (parent)
chain: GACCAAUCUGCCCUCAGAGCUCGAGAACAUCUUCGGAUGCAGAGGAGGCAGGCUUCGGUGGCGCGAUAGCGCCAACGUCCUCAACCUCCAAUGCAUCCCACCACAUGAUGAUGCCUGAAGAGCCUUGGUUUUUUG

Variants of: B1
Assay: polymerase ribozyme fitness, log enrichment relative to wild type (log ratio); higher = more active; in vitro selection for triplet polymerase activity
value_kind: polymerase ribozyme fitness (log ratio)
Returns: the value as a bare number; no unit string appended.

Consider the reported polymerase ribozyme fitness (log ratio) for these variants:
macromolecule_sequence	value_kind	assay_value
GACCAAUCGGCCCUCAGAGCUCGAGAACAUCUUCGGAUGCAGAGGAGGCAGGCUUCGGUGGCGCGAUAGCGCCAACGUCCUCAACCUCCAAUGCAUCCCACCAUAUGAUGAUGCCUGAAGAGCUUUGGUUUUUUG [U9G C104U C124U]	polymerase ribozyme fitness (log ratio)	1.88
GACCAAUCUGCCCUCAGAGCUCGAGAACAUCUUCGGAUGCCGAGGAGGCAGGCUUCGGUGGCGCGAUAGCGCCAACGUCCUCAACCUCCAAUACAUCCCACCACAUGAUGAAGCCUGAAGAGCCUUGGUUUUUUG [A41C G93A U112A]	polymerase ribozyme fitness (log ratio)	-1.27
GACCAAUCUGCCCUCAGAUCUCGAGAACAUCUUCGGAUGCAGAGGAGGCAGGCUUCGGUGGCGCGAUAGCGCCAACGUCCUCAACCACCAAUGCAUCCCACCACACGAUGAUGCCUGUAGAGCCUUGGUUUUUUG [G19U U87A U106C A118U]	polymerase ribozyme fitness (log ratio)	-4.56

Q: Could you tell me which polymerase ribozyme fitness (log ratio) is on file for GACCAAUCUGCCCUCAGAGCUCGAGAACAUCUUCGGAUGCAGAGGAGGCAGGCUUCGGUGGCGAGAUAGCGCCAACGUCCUCAACCUCCAAUGCAUCCCACCACAUGAUGAUGCCUGAAGAGCAUUGGUUUUUUG [C64A C124A] ?
Result: -4.7

Q: Could you tell me which polymerase ribozyme fitness (log ratio) is on file for GACCAAUCUGCCGUUAGAGCUCGAGAACAUCUUCGGAUGCAGAGGAGGCAGGCUUCGGUGGCGCGAUAACGCCAACGUCCUCAACCUCCAAUGCAUCCCACCACAUGAUGAUGUCUGAAGAGCCUUGGUUUUUUG [C13G C15U G69A C114U] ?
Result: -6.44

Q: Could you tell me which polymerase ribozyme fitness (log ratio) is on file for GACCAAUCUGCCUUCAGAGCUCGAGAACAUCUUCGGAUGCAGAGGAGGCAGGCUUCGGUGGCGCGAUACCGCCAACGUCCUCAACCUCCAAUGCAUCCCACCACAUGAUGAUGCCUGAAGAGCCUUGGUUUUUUG [C13U G69C] ?
Result: -1.26

Q: Could you tell me which polymerase ribozyme fitness (log ratio) is on file for GACCAAUCUGCCCUCAGAGCUCGAGAACAUCUUCGGAUGCAGAGGAGGCAGGCUUCGGUGGCGCGAUAGCGCCAACGUCCUCAACCUCCAAAGCAUCCCACCACAUGAUGACGCCUGAAGCGCCUUGGUUUUUUG [U92A U112C A121C] ?
Result: -0.365

Q: Could you tell me which polymerase ribozyme fitness (log ratio) is on file for GACCAAUCUGCCCUCAGAGCUCGAGAACAUCUUCGGAUGCAGAGGAGGCAGGCUACGGUGGCGCGAUAGCGCCAACGUCCUCACCCUCCAAUGCAUCCCACCACAUGAUGAUGCCUGAAGAGCCUUGGUUUUUUG [U55A A84C] ?
Result: 0.0901
